Every entry's value here was drawn from patent US20130245238A1.

# koff values compiled below
- assay-target: T1, human PXR-GST (Invitrogen) (human, UniProt O75469 111-434, limits assumed)
- T1 construct: Captured on an anti-GST antibody chip; the whole natural protein is named; also called GST-PXR; GST-tagged PXR; not shown: GST tag
- T1 sequence (looked up): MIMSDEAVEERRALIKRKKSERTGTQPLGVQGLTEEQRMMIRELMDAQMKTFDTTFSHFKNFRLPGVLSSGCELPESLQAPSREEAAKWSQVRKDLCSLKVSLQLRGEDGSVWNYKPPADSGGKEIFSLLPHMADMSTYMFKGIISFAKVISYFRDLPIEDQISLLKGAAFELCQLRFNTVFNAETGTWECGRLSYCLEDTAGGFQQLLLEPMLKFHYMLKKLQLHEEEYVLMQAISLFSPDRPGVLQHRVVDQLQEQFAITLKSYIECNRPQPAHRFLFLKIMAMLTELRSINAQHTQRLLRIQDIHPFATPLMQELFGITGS
- assay-procedure: SPR, Biacore T100; human PXR-GST captured on anti-GST antibody chip;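 also: binding rate constants and Kd derived from kinetic cycles using the Biacore T100 analysis software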
Reply with the number and its unit after it.

1) Adnectin-7 (designed binder) MGVSDVPRDLEVVTATPTSLLISWDGPKYYVKYYRITYGETGGNSPVQEFTVPRTDHTATISGLKPGVDYTITVYAVKGQYGPYYGSRPISINYRTEIDKPSQHHHHHH
8.82e-05 s⁻¹

# evaluate next
Prompt: Name the reported koff value associated with the binder Adnectin-6 (designed binder) MGVSDVPRDLEVVAATPTSLLISWSRPKGSIKYYRITYGETGGNSPVQEFTVPNSQYTATISGLKPGVDYTITVYAVYGYPYQEPHYYPISINYRTEIDKPSQHHHHHH
Response: 0.00126 s⁻¹
